src = patent US20230151091A1

# tested-system: cynomolgus monkey MuSK (cynomolgus monkey, UniProt A0A2K5USF6 24-487)
# Sequence (A0A2K5USF6 entry or part of it): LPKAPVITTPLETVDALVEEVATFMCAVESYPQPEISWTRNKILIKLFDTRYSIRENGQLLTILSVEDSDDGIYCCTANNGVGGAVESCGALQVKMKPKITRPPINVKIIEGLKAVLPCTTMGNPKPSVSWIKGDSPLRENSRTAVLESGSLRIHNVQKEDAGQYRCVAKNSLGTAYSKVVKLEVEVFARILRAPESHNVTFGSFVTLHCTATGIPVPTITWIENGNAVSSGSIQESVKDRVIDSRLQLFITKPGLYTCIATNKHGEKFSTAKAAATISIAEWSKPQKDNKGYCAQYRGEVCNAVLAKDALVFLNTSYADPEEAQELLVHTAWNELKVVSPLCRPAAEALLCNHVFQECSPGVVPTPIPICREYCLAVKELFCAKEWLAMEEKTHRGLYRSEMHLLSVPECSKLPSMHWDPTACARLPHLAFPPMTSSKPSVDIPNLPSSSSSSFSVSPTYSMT
# method: Biacore, MuSK on chip, association pH 7.4, dissociation pH 5.5
Quick reference for kon among some binders
Hi! Could you send only the number? It should be in M⁻¹ s⁻¹, unit omitted.

3B2g1m2 (antibody, human IgG1, V domains shown, human IgG1-LALA backbone; produced in HEK293 cells) VH: EVQLLESGGGLVQPGGSLRLSCAASGFTFSDYGMSWVRQAPGKGLEWVSAIPGSGGSTYYKESVKGRFTISRDNSKNTLYLQMNSLRAEDTAVYYCAKRSGRIAFGALDAWGQGTLVTVSS VL: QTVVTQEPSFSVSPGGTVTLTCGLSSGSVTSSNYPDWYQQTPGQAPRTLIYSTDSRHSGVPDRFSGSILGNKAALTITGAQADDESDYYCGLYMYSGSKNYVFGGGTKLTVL; 800000

We now examine a further binder.
Quick one: kon for 3B2g2m2 (antibody, human IgG1, V domains shown, human IgG1-LALA backbone; produced in HEK293 cells) VH: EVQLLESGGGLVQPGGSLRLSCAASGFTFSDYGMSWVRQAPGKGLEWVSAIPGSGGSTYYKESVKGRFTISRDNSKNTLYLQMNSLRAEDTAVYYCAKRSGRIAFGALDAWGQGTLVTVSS VL: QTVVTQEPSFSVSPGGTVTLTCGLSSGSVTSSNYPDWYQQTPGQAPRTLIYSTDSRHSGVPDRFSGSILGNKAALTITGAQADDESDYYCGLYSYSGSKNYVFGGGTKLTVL ?
860000
